Source: patent US20240279215A1

Target: human NAMPT (Homo sapiens (Human), UniProt P43490)
Sequence (P43490 whole entry): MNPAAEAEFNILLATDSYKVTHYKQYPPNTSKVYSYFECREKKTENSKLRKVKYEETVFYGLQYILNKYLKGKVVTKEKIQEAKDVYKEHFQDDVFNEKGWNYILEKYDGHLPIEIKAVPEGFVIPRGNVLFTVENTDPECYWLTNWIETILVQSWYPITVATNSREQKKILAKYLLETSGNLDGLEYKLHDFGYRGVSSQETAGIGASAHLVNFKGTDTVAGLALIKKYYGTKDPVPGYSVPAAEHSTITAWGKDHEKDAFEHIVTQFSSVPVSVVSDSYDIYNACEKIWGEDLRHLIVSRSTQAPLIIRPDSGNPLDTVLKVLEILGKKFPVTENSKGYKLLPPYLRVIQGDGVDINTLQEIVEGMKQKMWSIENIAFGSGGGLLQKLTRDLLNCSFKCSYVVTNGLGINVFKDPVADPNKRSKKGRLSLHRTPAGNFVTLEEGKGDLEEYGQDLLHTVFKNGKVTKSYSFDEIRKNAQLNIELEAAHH
Experiment: NMN fluorescence biochemical assay (human recombinant NAMPT enzyme assay)
reported_property: EC50 (µM)

See these solved cases before continuing.
# smiles_entry, unit_spec, EC50
rows = [
    ("O=C(Nc1ccc(CNC(=O)c2ncccc2F)cc1)OCc1ccc(Cl)cc1", "µM", 9.34),
    ("O=C(Nc1ccc(Cc2ccncc2)cc1)OCc1ccc(C(F)F)cc1", "µM", 7.22),
]

P = COc1cc(C(=O)NCc2ccc(NC(=O)OCc3ccc(Cl)cc3)cc2)cnc1C
Q = CO[C@@H]1CCCN(C(=O)Cc2ccc(NC(=O)OCc3ccc(Cl)cc3)cc2)C1
*Q* Consider entries P and Q . Which has the numerically lower EC50? Your answer should be the label attached to the chosen record.
*A* P
(P: 8.13 µM, Q: 12.8 µM)
